Each entry below carries its recorded viability, T/C.
System: LG0703-F948-PDC complex spheroid viability;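 further: spheroids exposed to agents for seven days before readout; 100% = DMSO vehicle control wells as normalization base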
procedureDetails: Anticancer human tumor LG0703-F948-PDC patient-derived lung adenocarcinoma cell line growth inhibition
testContext: second compound 1 µM; first compound 0.0316 µM; active compounds read low
metricName: viability, T/C (%)

INSERT INTO assay_data (molecule, metricname, measurementunit, endpointresult) VALUES
  ('CC1COCCN1c1cc(C2(S(C)(=N)=O)CC2)nc(-c2ccnc3[nH]ccc23)n1 (centres undefined) + NC1CCC(NC2CC2c2ccccc2)CC1', 'viability, T/C', '%', 113),
  ('COc1cc(Nc2ncc3c(n2)-c2ccc(Cl)cc2C(c2c(F)cccc2OC)=NC3)ccc1C(=O)O + NC1CCC(NC2CC2c2ccccc2)CC1', 'viability, T/C', '%', 91.4),
  ('CC[C@@]1(O)C(=O)OCc2c1cc1n(c2=O)Cc2cc3c(CN(C)C)c(O)ccc3nc2-1 + NC1CCC(NC2CC2c2ccccc2)CC1', 'viability, T/C', '%', 77.7),
  ('CC1COCCN1c1cc(C2(S(C)(=N)=O)CC2)nc(-c2ccnc3[nH]ccc23)n1 (centres undefined) + NC1CC1c1ccc(-c2cccc(O)c2)cc1', 'viability, T/C', '%', 111);

These data points were gathered from PubChem BioAssay AID1918952.
